Experiment: BSK_KF3CT_SRB: Viability Assessment in the BioMAP Diversity Plus: KF3CT Assay (AID 2283069);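 also: total protein by sulforhodamine B staining as a cytotoxicity measure; read 24 h after compound addition; fitted for both signal gain and loss against DMSO baseline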
Conditions: primary human keratinocytes with fibroblasts
Method: BSK_KF3CT is a cell-based, multiplexed-readout assay that uses keratinocytes and foreskin fibroblasts, a human skin primary cell co-culture, with measurements taken at 24 hours after chemical dosing in a 96-well plate.BSK_KF3CT_SRB is an assay component measured in the BSK_KF3CT assay. It measures 0.1% sulforhodamine related to cell death using Sulforhodamine staining technology.Data from the assay component BSK_KF3CT_SRB was analyzed into 1 assay endpoint. […]
Active and inactive are the calls of the source. The calls were made as follows: active = hit-call score of the fitted dose curve at least 0.9, where 1 is the maximum; inactive = score below 0.9.
Classes used: true (active), false (inactive)

{"columns": ["Structure Smiles", "Label Class"],
 "data": [
  ["O=C(O)CCC(F)(F)C(F)(F)C(F)(F)F", "false"],
  ["O=C(O)C(F)(F)C(F)(F)C(F)(F)C(=O)O", "false"],
  ["O=C(F)C1(F)C(F)(F)C(F)(F)C(F)(F)C(F)(F)C1(F)F", "false"],
  ["O=C(O)CCC(F)(F)C(F)(F)C(F)(F)C(F)(F)C(F)(F)C(F)(F)C(F)(F)F", "false"],
  ["NC(=O)C(F)(F)C(F)(F)C(F)(F)C(F)F", "false"],
  ["O=C=NCc1cccc(CN=C=O)c1", "false"],
  ["CCN(CCO)S(=O)(=O)C(F)(F)C(F)(F)C(F)(F)C(F)(F)C(F)(F)C(F)(F)C(F)(F)C(F)(F)F", "false"],
  ["C=C(C)C(=O)OCC(F)(F)C(F)(F)C(F)(F)C(F)F", "false"],
  ["C=CC(=O)OCCC(F)(F)C(F)(F)C(F)(F)C(F)(F)F", "false"],
  ["O=C1C=CC(=O)N1c1ccc(Cc2ccc(N3C(=O)C=CC3=O)cc2)cc1", "true"],
  ["C=CC(=O)OCC(F)(F)C(F)(F)C(F)(F)C(F)(F)C(F)(F)C(F)(F)C(F)(F)C(F)F", "false"]
]}
